Value source: patent US20240270853A1

Biological target: T1, Recombinant mouse DDR2 ECD-Fc (R&D systems, Cat. No. 7479-DR-050) (mouse, UniProt Q62371 22-399, biotinylated)
T1 construct: Bought protein; not shown: Fc part of the bought fusion protein, not described
T1 sequence: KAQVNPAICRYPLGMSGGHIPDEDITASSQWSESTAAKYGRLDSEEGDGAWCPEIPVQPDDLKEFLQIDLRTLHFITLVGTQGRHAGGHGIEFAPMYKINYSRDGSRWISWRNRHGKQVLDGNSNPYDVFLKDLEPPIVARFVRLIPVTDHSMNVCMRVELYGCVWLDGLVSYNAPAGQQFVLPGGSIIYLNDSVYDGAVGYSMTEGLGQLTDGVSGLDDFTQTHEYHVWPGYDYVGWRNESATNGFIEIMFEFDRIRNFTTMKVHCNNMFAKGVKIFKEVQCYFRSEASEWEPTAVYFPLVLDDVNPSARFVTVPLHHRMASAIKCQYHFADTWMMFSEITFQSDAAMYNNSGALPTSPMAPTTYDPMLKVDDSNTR
Test: Octet tandem binning on captured mouse DDR2 ECD-Fc; competitor Ab1 (bound first) DAB0045
parameter measured: Octet response of Ab2
Just the number, please, no unit after it.

{"binder": "DAB0045 (antibody, V domains shown, Variable regions from immunized rabbits) VH: QSVEESGGRLVTPGTPLTLTCTVSGFSLSSYSMGWVRQAPGKGLEYIGVINTSDSAYYASWAKGRFTISRTSTTVDLKMTSLTTEDTATYFCARAIGYYGSGWGACYFNLWGQGTLVTVSS VL: AIKMTQTPSSVSAAVGGTVTVNCQASEDIKSYLAWYQQKPGQPPKLLIYSASTLASGVSSRFKGSGSGTQFTLTISDLECADAATYYCQSYYGTSTTGEYNAFGGGTKVEIK", "result value": 0}
{"binder": "DAB0065 (antibody, V domains shown, Variable regions from immunized rabbits) VH: QSVEESGGRLVTPGTPLTLTCTVSGFSLSTSAMSWVRQAPGKGLEWIGMITYGGSGSTWYASWANGRFTISKTSTTVTLKMTSPTTEDTASYFCARVYGTIGSNFYSIYSFNLWGQGTLVTVSS VL: AAVLTQTPSPVSAAVGGTVSISCQSSKSVYNSNYLSWYQQKPGQPPKLLIYYTSALASGVSSRFKGSGSGTRFTLTISDVQCDDAATYYCAGGYSSSSDNGFGGGTKVEIK", "result value": 0.0398}

Kindly consider the entry below.
Inquiry: For DAB0069 (antibody, V domains shown, Variable regions from immunized rabbits) VH: QSLEESGGRLVTPGTPLTLTCTASGFSLSNYYMQWVRQAPGKGLEWIGIVYPGSSAYYANWAKGRFTISKTSTTVDLKMTSLTTEDTATYFCAGSSNSVYSFNLWGQGTLVTVSS VL: AYDMTQTPSSVSAAVGGTVTIKCQASESIYRSLAWYQQKPGQPPKLLIYSASTLTSGVSSRFKGSGSGTEFTLTISDLECADAGTYYCQQGGSFSNIVNTFGGGTKVEIK , what is its reported Octet response of Ab2?
Reply text: 0.0335
